Provenance of the data: the supplement of paper PMC13380429

- Test system: Caco-2
- procedure-details: drug sensitivity score (DSS) for viability; higher = more toxic; extreme values may be limits of the assay
- test-context: 72 h
metric-name: drug sensitivity score
I only need the number, thanks.

COc1cc(C#N)ccc1S(=O)(=O)Nc1ccc2c(c1)cc(C)c(=O)n2C [NI-57] ... 0.6

Challenge: Provide drug sensitivity score, tested on Caco-2, for Cn1c(NCCN(CCO)CCCc2ccc([N+](=O)[O-])cc2)cc(=O)n(C)c1=O [nifekalant] .
Response given: 1.8

Challenge: Provide drug sensitivity score, tested on Caco-2, for C[C@@H]1C[C@H]2[C@@H]3CCC4=CC(=O)C=C[C@]4(C)[C@@]3(F)[C@@H](O)C[C@]2(C)[C@@]1(O)C(=O)COP(=O)(O)O [DEXAMETHASONE SODIUM PHOSPHATE] .
Response given: 0

Challenge: Provide drug sensitivity score, tested on Caco-2, for CCC1(CC)C(=O)NC(=O)N(C)C1=O [metharbital] .
Response given: 0
